Reported growth inhibition values follow for various compounds
TEST: NCI Yeast Anticancer Drug Screen. Data for the mlh1 strain (AID 171);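 also: 0% = growth of vehicle-treated control cultures of the same strain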
SETTINGS: S. cerevisiae mlh1 strain growth inhibition; at 1.2 µM; active compounds read high
The panel holds about 79,000 compounds, 15% with a hit somewhere; the sample as a whole holds those more often.
Report the figure in % without appending any unit label.

Before answering, review these 5 worked examples.
COMPOUND	DISPLAY UNIT	growth inhibition
CCOc1ccccc1N=Cc1c2ccccc2cc2ccccc12	%	18
Nc1ncnc2c1ncn2C1OC(CO)CC1O (stereo not given)	%	-22
CCc1c[n+]([O-])c(C)cc1[N+](=O)[O-]	%	-1
COc1oc(C(=O)NC2CCCCC2)c(-c2ccc(Cl)cc2)c1S(=O)(=O)c1ccccc1	%	-20
Cc1ccc2c3ccc4c(c3n(C)c2c1)C(=O)C=CC4=O	%	-10

growth inhibition measured on N#CC(C#N)=NNc1ccc(S(=O)(=O)O)cc1 = 3

Sure, the documented growth inhibition for Cc1ccc(NC(c2ccccc2)c2ccc3cccnc3c2O)cc1 (stereo not given) is 2

The compound identified as COc1cc2ccnc(-c3c4ccccc4c(N)c4c(OC)c(OC)ccc34)c2cc1OC registered its growth inhibition at -4

growth inhibition recorded for this compound, O=C1N=C2SC=C(NC(=S)Nc3ccccc3)N2NC12c1ccccc1-c1ccccc12 , is 10

Please fill in: growth inhibition reported for COc1ccc([N+](=O)[O-])c2c(NCCCN(C)C)c3ccccc3nc12 = 0

Per the record, Cc1cccc2c1nc1ccc(Cl)cc1[n+]2C has growth inhibition of -3

###

TEST: NCI Yeast Anticancer Drug Screen. Data for the sgs1 mgt1 strain (AID 161);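 also: 0% = growth of cultures given vehicle only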
SETTINGS: S. cerevisiae sgs1 mgt1 strain, at 5.0 µM (retest, dose inferred, filed as 0.5), active compounds read high
The panel holds about 79,000 compounds, 15% with a hit somewhere; the sample as a whole holds those more often.
Measured growth inhibition values are reported for all entries that follow.
Use % as the unit, but write only the number.

Illustrative cases are given below, each with its answer.
COMPOUND	growth inhibition [%]
S=C1SCN(C2CCCCC2)CN1C1CCCCC1	0
CC(O)=NC(Cc1ccc2ccccc2c1)C(O)=NC(Cc1ccc(Cl)cc1)C(O)=NC(Cc1c[nH]c2ccccc12)C(O)=NC(CO)C(O)=NC(Cc1ccc(O)cc1)C(O)=NC(CCCN=C(N)N)C(O)=NC(CC(C)C)C(O)=NC(CCCN=C(N)N)C(=O)N1CCCC1C(O)=NC(C)C(=N)O (stereo not drawn)	2
COc1ccc2[nH]cc([C@@H]3C4CCC(C4)[C@H]3NCc3cccc(CN[C@H]4C5CCC(C5)[C@@H]4c4c[nH]c5ccc(OC)cc45)c3)c2c1	-7

The compound identified as CCCCc1nnc(NS(=O)(=O)c2ccc(C)cc2)s1 registered its growth inhibition at -24

Measured growth inhibition of CCCCN(CCCC)C(=O)/C=C/c1ccccc1 : 4

Reported growth inhibition ( COc1ccc(C(=O)Oc2ccccc2Br)cc1 ) = 0

For record C/C=C/SC(=Nc1ccccc1)Nc1ccccc1 the listed growth inhibition is -5

For Cc1c2ccnc(C(=O)NCCN(C)C)c2cc2c3cc(O)ccc3n(C)c12 the compound record lists growth inhibition as -4

###

TEST: NCI Yeast Anticancer Drug Screen. Data for the mec2-1 strain (AID 157)
SETTINGS: S. cerevisiae mec2-1 strain, at 5.0 µM (retest, dose inferred, filed as 0.5), active compounds read high
This is part of a sample that, as a whole, favours compounds with a hit. Of some 79,000 tested, about 15% had one in any assay.
ENDPOINT: growth inhibition (%)
API: value field is a number in %; no unit string.

Take a look at these entries with their results.
COMPOUND	growth inhibition (%)
CC(=O)SC(C[N+](=O)[O-])c1ccccc1 (stereo not drawn)	-15
Cc1csc(=S)n1OC(=O)NC1CCCCC1	-3
O=C1C=C(Cl)C(=O)C(c2ccc(Cl)cc2)=C1	21

The compound listed as O=[N+]([O-])c1cc(S(=O)(=O)Nc2ccccc2)ccc1Nc1ccccc1 has a reported growth inhibition of 39

growth inhibition reported for this compound Cc1ccccc1N=Cc1cc(Cl)ccc1O : -7

growth inhibition reading for c1ccc2c(c1)sc1c3cnccc3ccc21 : -34

The reported value for O=C1c2ccccc2C(=O)N1CCCC(=O)n1cc(F)c(=O)[nH]c1=O in terms of growth inhibition is 20

Quick note, growth inhibition for Cc1ccc([N+]2=NC(c3ccccc3)=NN(c3ccccc3)C2)cc1 landed at 2

###

TEST: NCI Yeast Anticancer Drug Screen. Data for the mlh1 rad18 strain (AID 175)
SETTINGS: S. cerevisiae mlh1 rad18 strain growth inhibition; at 5.0 µM (retest, dose inferred, filed as 0.5); active compounds read high
This is part of a sample that, as a whole, favours compounds with a hit. Of some 79,000 tested, about 15% had one in any assay.
Some molecules, each annotated with its measured growth inhibition.
The response must be a number in % with no trailing unit.

Known results for molecules:
MOLECULE	OBSERVED
Nc1cc(N)c(N=Nc2cccc3c(S(=O)(=O)O)cccc23)cc1N=Nc1cc([N+](=O)[O-])ccc1O	52
CCCCCCCCCCCC(O)S(=O)(=O)O (stereo not drawn)	7
Cc1ccc(S/C(=C\C(=O)O)c2ccccc2)cc1	-29
COc1cc2cc3c4cc(OC)c(OC)cc4cc[n+]3c(C)c2cc1OC	55
N#CC1=C(N)N(/N=C/c2ccccc2)C(c2ccccc2)C1(C#N)C#N (stereo not drawn)	14
COc1oc(C(=O)NC2CCCCC2)c(-c2ccc(Cl)cc2)c1S(=O)(=O)c1ccccc1	16

CC(C)OC(=O)Nc1ccc2nc(-c3cscn3)[nH]c2c1 has a reported growth inhibition of 11

Value of measured growth inhibition for the entry COc1cc(O)c2c(c1O)C(=O)c1cc(C)ncc1C2=O : 17

Per the record, OC(CCNCc1ccccc1)c1ccc2ccccc2c1 (stereo not drawn) has growth inhibition of 51

###

TEST: NCI Yeast Anticancer Drug Screen. Data for the wt2 strain (AID 169);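 also: 0% = growth of vehicle-treated yeast cultures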
SETTINGS: S. cerevisiae wt2 strain growth inhibition; at 3.7 µM; active compounds read high
This is part of a sample that, as a whole, favours compounds with a hit. Of some 79,000 tested, about 15% had one in any assay.
Recorded growth inhibition, one value per entry.
Dear colleague, please return just the value in %, with no unit written.

MOLECULE	growth inhibition (%)
O=c1[nH]c(-c2ccccc2)nc2c1sc1nc3ccccc3n12	-6
C=C1C(=O)OC2CC1C(OC(C)=O)C/C(C)=C/CC/C(C)=C\CCC2(C)O (configuration not stated)	-4
CC(C)C(C)/C=C\C(C)C1CCC2C3=CC=C4CC(O)CCC4(C)C3CCC21C (configuration not stated)	1
COc1ccc2[nH]cc([C@@H]3C4CCC(C4)[C@H]3NCc3cccc(CN[C@H]4C5CCC(C5)[C@@H]4c4c[nH]c5ccc(OC)cc45)c3)c2c1	-42
O=C(O)CNC(=S)Nc1ccccc1	-64
Cc1cc(N(CCOS(C)(=O)=O)CCOS(C)(=O)=O)ccc1C=Nc1ccc(-c2csc(-c3ccccc3)n2)c(Cl)c1	4

Lab note: CC1(C)CC(=O)C(/C=N/c2nc(-c3ccccc3)cs2)=C(O)C1 gave growth inhibition of 1

Record summary for O=C1c2cccnc2C(=O)C2C3C=CC(C3)C12 (configuration not stated) : reported growth inhibition = 36

// sample O=C(COC(=O)c1ccccc1)c1ccc(Br)cc1 , its growth inhibition was 63

# growth inhibition of O=[N+]([O-])c1cc(S(=O)(=O)Nc2ccccc2)ccc1Nc1ccccc1 = -18

Data point: CC(NCCN(C)C)C1CCC2C3CCc4cc(O)ccc4C3CCC12C (configuration not stated) ; growth inhibition = 0

Briefly, growth inhibition measured for CN(C)CCNC(=O)c1cccc2c1Oc1c(cccc1[N+](=O)[O-])O2 : -27

Summary for this molecule, NC(=O)C(=O)NNc1ccccc1 : growth inhibition is 13

The recorded growth inhibition for COC(=O)Nc1cn2ccc(C(Cl)=C(Cl)Cl)cc2n1 is -33

Please fill in: growth inhibition reported for Nc1ccn(C2OC(COP(=O)(O)O)C(O)C2O)c(=O)n1 (configuration not stated) = -1

The measured growth inhibition associated with N=C1N=Nc2nc(C3(c4nc5n(c4O)C(=N)N=N5)Cc4ccccc4C3=O)c(O)n21 (configuration not stated) reads 16

For this molecule ( O=C(O)c1cc2ccc(Cl)cc2c(O)c1C1=CCCCC1 ), measured growth inhibition is 5

Noted for CCCCC(CC)C(=O)[O][Sn]([CH2]CCC)([CH2]CCC)[O]C(=O)C(CC)CCCC (configuration not stated) : its growth inhibition reads -10

growth inhibition recorded for this molecule, CCN(CC)CCNc1ccc([N+](=O)[O-])c2nc3ccccc3c(N)c12 , is -1

For record CS(=O)(=O)OCCN(CCOS(C)(=O)=O)c1ccc(C=Nc2ccc(-c3csc(COc4ccccc4)n3)cc2)cc1 the listed growth inhibition is 11

Entry c1ccc2c(c1)sc1c3cnccc3ccc21 , growth inhibition reported as 14

// recorded growth inhibition for Oc1[nH]c2ccccc2c1N=NC(=S)N1CCCCC1 : 6
